B1: glmS ribozyme (parent)
chain: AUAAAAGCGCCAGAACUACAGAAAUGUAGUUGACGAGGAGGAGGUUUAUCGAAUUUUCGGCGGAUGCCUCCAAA

Variants of: B1
Assay: self-cleavage kobs at 2500 uM GlcN6P; higher = faster cleavage; RNA array
Conditions: with glucosamine-6-phosphate
Variants at the floor of the assay were thinned out.
Value kind: self-cleavage kobs at 2500 uM GlcN6P (s⁻¹)
Number only, in s⁻¹; omit the unit.

Quick one: self-cleavage kobs at 2500 uM GlcN6P for G29A A39U G40U ?
0.000177

Quick one: self-cleavage kobs at 2500 uM GlcN6P for A12U U46C C67A ?
0.00113

Quick one: self-cleavage kobs at 2500 uM GlcN6P for A14G C58U ?
5.32e-05

Quick one: self-cleavage kobs at 2500 uM GlcN6P for C61G C68G ?
0.000131

Quick one: self-cleavage kobs at 2500 uM GlcN6P for A15G G32U ?
0.000525

Quick one: self-cleavage kobs at 2500 uM GlcN6P for A42G A64U ?
0.000104

Quick one: self-cleavage kobs at 2500 uM GlcN6P for G40C A52U ?
7.08e-05

Quick one: self-cleavage kobs at 2500 uM GlcN6P for U30G U45C C71A ?
8.42e-05

Quick one: self-cleavage kobs at 2500 uM GlcN6P for G32A A52G ?
8.18e-05

Quick one: self-cleavage kobs at 2500 uM GlcN6P for A15U G41U A42G U57C C70A ?
7.37e-05

Quick one: self-cleavage kobs at 2500 uM GlcN6P for A14U G43U C68G ?
0.0033

Quick one: self-cleavage kobs at 2500 uM GlcN6P for A39U C67G ?
0.00196

Quick one: self-cleavage kobs at 2500 uM GlcN6P for U54A C58A ?
0.000217

Quick one: self-cleavage kobs at 2500 uM GlcN6P for A53U U65G ?
0.00152

Quick one: self-cleavage kobs at 2500 uM GlcN6P for A12U C34U G38A C50G ?
0.000122

Quick one: self-cleavage kobs at 2500 uM GlcN6P for C11U U54C G66U ?
9.68e-05

Quick one: self-cleavage kobs at 2500 uM GlcN6P for A15C A39G U47G A53U ?
0.000235

Quick one: self-cleavage kobs at 2500 uM GlcN6P for A14G A48G C71U ?
0.000156

Quick one: self-cleavage kobs at 2500 uM GlcN6P for A53U U57G ?
5.56e-05

Quick one: self-cleavage kobs at 2500 uM GlcN6P for U30A A39U ?
0.0022

Quick one: self-cleavage kobs at 2500 uM GlcN6P for G43U A53G ?
3.6e-05

Quick one: self-cleavage kobs at 2500 uM GlcN6P for A42G A48U U54G ?
0.000367

Quick one: self-cleavage kobs at 2500 uM GlcN6P for A15C U65A ?
0.000234

Quick one: self-cleavage kobs at 2500 uM GlcN6P for A12U A14C C71U ?
0.00169

Quick one: self-cleavage kobs at 2500 uM GlcN6P for G41A U55C ?
0.000105
